- experiment summary: background-corrected fluorescence of 3'-dye-labeled ssDNA relative to brightest sequence (3'-GCGCG) (fraction); higher = brighter dye fluorescence (less quenching)
- reported conditions: dye: Cy3 (3' terminal)
background-corrected fluorescence reference
Keep the answer to the number alone.

Before answering, review these 5 worked examples.
>  <sequence text>
TTTTTGCAGCATCATCATGCTTTTTTTTTTTTTTTTTGGA [AGGTT]

>  <assay metric>
background-corrected fluorescence

>  <measurement>
0.689

$$$$
>  <sequence text>
TTTTTTGCTGAGCAGCATGATTTTTTTTTTTTTTTACTTC [CTTCA]

>  <assay metric>
background-corrected fluorescence

>  <measurement>
0.405

$$$$
>  <sequence text>
TTTTTTGCTCATGATGCTGATTTTTTTTTTTTTTTAGCAC [CACGA]

>  <assay metric>
background-corrected fluorescence

>  <measurement>
0.415

$$$$
>  <sequence text>
TTTTTGCATCATCATGATGATTTTTTTTTTTTTTTTGGCC [CCGGT]

>  <assay metric>
background-corrected fluorescence

>  <measurement>
0.46

$$$$
>  <sequence text>
TTTTTGCATGCTGCTGATGCTTTTTTTTTTTTTTTTAACA [ACAAT]

>  <assay metric>
background-corrected fluorescence

>  <measurement>
0.557

$$$$

(Q) Give background-corrected fluorescence for TTTTTTGCTGATGATGATCATTTTTTTTTTTTTTTACCCG [GCCCA]
(A) 0.505

(Q) Give background-corrected fluorescence for TTTTTTGATGCTGATGCTGCTTTTTTTTTTTTTTTCACAA [AACAC]
(A) 0.562

(Q) Give background-corrected fluorescence for TTTTTTGCGCATGCTCATCATTTTTTTTTTTTTTTATAGG [GGATA]
(A) 0.628

(Q) Give background-corrected fluorescence for TTTTTTGCTGCTGAGCATCATTTTTTTTTTTTTTTAACTG [GTCAA]
(A) 0.547

(Q) Give background-corrected fluorescence for TTTTTGCATCATGCTGCTCATTTTTTTTTTTTTTTTGAAG [GAAGT]
(A) 0.564

(Q) Give background-corrected fluorescence for TTTTTTGCTCATGCTGATGATTTTTTTTTTTTTTTAGACC [CCAGA]
(A) 0.439
